TR-FRET Biochemical Amax by entry:
TEST_TARGET: RORγt-LBD (Homo sapiens)
Sequence (P51449 269-508 limits assumed): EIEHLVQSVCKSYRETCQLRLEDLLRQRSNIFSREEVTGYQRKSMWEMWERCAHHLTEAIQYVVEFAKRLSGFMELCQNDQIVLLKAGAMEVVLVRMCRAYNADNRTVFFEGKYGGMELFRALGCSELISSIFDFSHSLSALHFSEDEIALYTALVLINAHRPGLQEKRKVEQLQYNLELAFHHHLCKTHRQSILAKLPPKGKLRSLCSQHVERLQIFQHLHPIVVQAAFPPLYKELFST
METHOD: Time-resolved fluorescence resonance energy-transfer assay (TR-FRET), co-activator peptide recruitment
Assay type: biochemical
Set-up: unit not given here
CONDITION_CONTEXT: upper activation limit; His-RORγt-LBD, SRC peptide
Procedure: I. Time-Resolved Fluorescence Resonance Energy-Transfer Assay (TR-FRET) This experiment was a screening experiment for RORγt nuclear receptor agonists based on TR-FRET technology. […] Then the corresponding signal values were read with PerkinElmer EnVision at a wavelength of 665/615 […]. The agonistic activity of the corresponding compound was calculated with Graphpad Prism 7.0 software.
Kindly provide the number alone.

Tell me TR-FRET Biochemical Amax reported for C/C(=C\c1ccc2c(c1)N(S(=O)(=O)c1cccc(C(F)(F)F)c1)C[C@@H]1C[C@](C)(OCCC(=O)O)CCN21)c1c(F)cccc1Cl [Example 121] 0.98

Annotate the compound C[C@]1(O)CCN2c3ccc(-c4cc(F)cc(OC(F)F)c4)cc3N(S(=O)(=O)c3cccc(C(F)(F)F)c3)C[C@@H]2C1 [Example 108] with its measured TR-FRET Biochemical Amax. 0.99

Hello, please tell me recorded TR-FRET Biochemical Amax for this one: CC1(C)C=C(c2ccc3c(c2)N(S(=O)(=O)c2cccc(C(F)(F)F)c2)C[C@@H]2CN(C(=O)CC#N)CCN32)CC(C)(C)O1 [Example 31] 0.97

* * *

TEST_TARGET: RORγt (Homo sapiens)
Construct: The plasmid of pFN26A-RORγt-LBD and pG14.35 (Promega, Cat. No. E1370) were co-transfected into HEK 293 cells
Sequence (P51449 269-508 limits assumed): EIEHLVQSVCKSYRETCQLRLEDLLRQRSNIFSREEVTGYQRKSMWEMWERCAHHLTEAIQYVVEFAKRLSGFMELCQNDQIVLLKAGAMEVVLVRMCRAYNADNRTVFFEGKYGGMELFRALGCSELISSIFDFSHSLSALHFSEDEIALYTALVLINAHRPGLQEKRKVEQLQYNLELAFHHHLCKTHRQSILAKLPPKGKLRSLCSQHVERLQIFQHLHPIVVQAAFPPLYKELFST
METHOD: RORγt cellular reporter gene detection assay
CONDITION_CONTEXT: HEK 293 cells co-transfected with pFN26A-RORγt-LBD and pG14.35, in presence of antagonist Ursolic acid, 24 hrs; top concentration 50 μM
ASSAY_READOUT: EC50 (µM)
Field format: number, assumed µM, no unit text.

// solved cases for EC50 follow
NC(=O)CN1CCN2c3ccc(/C=C/c4c(Cl)cccc4C(F)(F)F)cc3N(S(=O)(=O)c3cccc(C(F)(F)F)c3)C[C@@H]2C1 [Example 59] = 0.602
NC(=O)N1CCN2c3ccc(-c4cc(F)cc(OC(F)F)c4)cc3N(S(=O)(=O)c3cccc(C(F)(F)F)c3)C[C@@H]2C1 [Example 61] = 0.469
N#CC(CO)(CO)N1CCN2c3ccc(-c4cc(F)cc(OC(F)F)c4)cc3N(S(=O)(=O)c3cccc(C(F)(F)F)c3)C[C@@H]2C1 [Example 74] = 1.04

Query EC50 for O=C(O)CN1CCN2c3ccc(-c4cc(F)cc(OC(F)F)c4)cc3N(S(=O)(=O)c3cccc(C(F)(F)F)c3)C[C@@H]2C1 [Example 9] 0.29

Determine its reported EC50: CCOC(=O)CN1CCN2c3ccc(/C=C(\C)c4c(F)cccc4Cl)cc3N(S(=O)(=O)c3cccc(C(F)(F)F)c3)C[C@@H]2C1 [Example 43] 0.162

Return EC50 for the following molecule: NC(=S)N1CCN2c3ccc(/C=C/c4c(Cl)cccc4C(F)(F)F)cc3N(S(=O)(=O)c3cccc(C(F)(F)F)c3)C[C@@H]2C1 [Example 65] 0.391

Report EC50, nothing else, for this molecule: O=S(=O)(c1cccc(C(F)(F)F)c1)N1C[C@@H]2CNCCN2c2ccc(/C=C/c3c(Cl)cccc3C(F)(F)F)cc21 [Example 11] 0.429

Respond only with EC50 recorded for CS(=O)(=O)N1CCN2c3ccc(-c4cc(F)cc(OC(F)F)c4)cc3N(S(=O)(=O)c3cccc(C(F)(F)F)c3)C[C@@H]2C1 [Example 8] 0.0904

Return the recorded EC50 value; entry: O=S(=O)(c1cccc(C(F)(F)F)c1)N1C[C@@H]2CC(F)CCN2c2ccc(-c3cc(F)cc(OC(F)F)c3)cc21 (stereo partly shown) [Example 103] 1.3

Quick one: give measured EC50 for O=S(=O)(c1cccc(C(F)(F)F)c1)N1C[C@@H]2CN(C3COC3)CCN2c2ccc(/C=C/c3c(Cl)cccc3C(F)(F)F)cc21 [Example 32] 0.599

Please report the measured EC50 for NC(=O)N1CCN2c3ccc(/C=C/c4c(Cl)cccc4C(F)(F)F)cc3N(S(=O)(=O)c3cccc(C(F)(F)F)c3)C[C@@H]2C1 [Example 60] 0.249

For the molecule C/C(=C\c1ccc2c(c1)N(S(=O)(=O)c1cccc(C(F)(F)F)c1)C[C@H](CCC(=O)O)N2C)c1c(F)cccc1Cl [Example 3] , report EC50. 1.74
